test system: BRAF-MEK1; test: BRAF-MEK TR-FRET assay, stabilization of MEK1 and BRAF interaction; type: binding; details: 4 nM BRAF, 10 nM MEK, 100 μM ATP; 1 hr at 25° C.; read-out: BRAF-MEK TR-FRET Assay (EC50, fold stabilization)
Measure name: EC50

[[record]]
molecule = "CN(C)C(=O)Oc1ccc2c(c1)OC(=O)N(Cc1cccc(NS(=O)(=O)C3CC3)c1F)C2 [Compound 125]"
reported = "200 to 1000 nM"

[[record]]
molecule = "CNS(=O)(=O)Nc1cccc(CN2C(=O)Oc3cc(Oc4ncco4)cc(F)c3[C@@H]2C)c1F (single isomer, unassigned) [Compound 86]"
reported = "200 to 1000 nM"

[[record]]
molecule = "CNS(=O)(=O)Nc1nccc(CN2C(=O)Oc3cc(Oc4cccnn4)ccc3[C@@H]2C)c1F (single isomer, unassigned) [Compound 22]"
reported = "50 to 200 nM"


----------
target: MEK1 (Homo sapiens, UniProt Q02750); construct: purchased SignalChem M02-14H; assay: MEK1 kinase cascade assay (ADP-Glo), inhibition of MEK1 kinase activity; type: biochemical; conditions: 25 nM BRAF, 6.25 nM MEK1, 0.5 μM ERK, 1 mM ATP; 20 min preincubation, 1 hr at 25° C.; read-out: BRAF ADP Glo kinase assay V3 (IC50)
Sequence (Q02750 whole entry): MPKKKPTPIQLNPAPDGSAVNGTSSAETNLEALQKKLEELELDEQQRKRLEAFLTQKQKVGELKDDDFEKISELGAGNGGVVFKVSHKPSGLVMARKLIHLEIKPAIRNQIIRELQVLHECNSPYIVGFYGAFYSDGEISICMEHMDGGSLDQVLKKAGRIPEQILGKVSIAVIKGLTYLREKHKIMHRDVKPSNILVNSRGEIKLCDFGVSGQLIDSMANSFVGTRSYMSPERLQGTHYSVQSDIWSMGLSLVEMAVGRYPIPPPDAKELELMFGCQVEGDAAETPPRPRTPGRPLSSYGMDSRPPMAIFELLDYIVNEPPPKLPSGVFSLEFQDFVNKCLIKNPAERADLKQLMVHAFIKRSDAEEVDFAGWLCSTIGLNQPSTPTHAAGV
Sequence (P15056 445-723 partner limits assumed): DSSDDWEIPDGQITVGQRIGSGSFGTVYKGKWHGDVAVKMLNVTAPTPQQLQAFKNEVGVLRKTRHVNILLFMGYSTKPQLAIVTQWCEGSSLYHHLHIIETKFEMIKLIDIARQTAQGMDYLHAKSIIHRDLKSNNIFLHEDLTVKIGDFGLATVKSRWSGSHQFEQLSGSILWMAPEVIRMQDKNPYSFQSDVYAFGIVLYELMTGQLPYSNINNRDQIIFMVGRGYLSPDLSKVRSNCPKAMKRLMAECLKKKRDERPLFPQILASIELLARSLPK
pIC50: −log10 of the molar value.
Catalogue of pIC50 readings, one per entry.
Measure name: pIC50

[[record]]
compound = "O=C1Oc2cc(Oc3cnccn3)ccc2C2(COC2)N1Cc1cccc(NS(=O)(=O)C2CC2)c1F"
target_entity = "MEK1 (Homo sapiens, UniProt Q02750)"
reported = "6.30 to 7.30"

[[record]]
compound = "CN(C)C(=O)Oc1ccc2c(c1)OC(=O)N(Cc1cccc(CN3CCOC3=O)c1F)C2"
target_entity = "MEK1 (Homo sapiens, UniProt Q02750)"
reported = "7.30 to 8.30"

[[record]]
compound = "CNS(=O)(=O)Nc1cccc(CN2Cc3cc(F)c(Oc4ncccn4)cc3OC2=O)c1F"
target_entity = "MEK1 (Homo sapiens, UniProt Q02750)"
reported = "7.30 to 8.30"

[[record]]
compound = "CNS(=O)(=O)Nc1cccc(CN2C(=O)Oc3cc(Oc4cccnn4)cnc3C23CC3)c1F"
target_entity = "MEK1 (Homo sapiens, UniProt Q02750)"
reported = "> 8.30"

[[record]]
compound = "CNS(=O)(=O)Nc1cccc(CN2C(=O)Oc3cc(Oc4cccnn4)cc(F)c3[C@H]2C)c1F (single isomer, unassigned)"
target_entity = "MEK1 (Homo sapiens, UniProt Q02750)"
reported = "7.30 to 8.30"

[[record]]
compound = "CNS(=O)(=O)Nc1cccc(CN2C(=O)Oc3c(ccc(Oc4ncco4)c3F)C23COC3)c1F"
target_entity = "MEK1 (Homo sapiens, UniProt Q02750)"
reported = "> 8.30"

[[record]]
compound = "CN(C)S(=O)(=O)Nc1cccc(CN2Cc3ccc(Oc4cccnn4)cc3OC2=O)c1F"
target_entity = "MEK1 (Homo sapiens, UniProt Q02750)"
reported = "7.30 to 8.30"

[[record]]
compound = "CNS(=O)(=O)Cc1cccc(CN2C(=O)Oc3cc(Oc4cccnn4)ccc3C23COC3)c1F"
target_entity = "MEK1 (Homo sapiens, UniProt Q02750)"
reported = "6.30 to 7.30"

[[record]]
compound = "CNS(=O)(=O)Nc1nccc(CN2C(=O)Oc3cc(Oc4cccnn4)cnc3C23CC3)c1F"
target_entity = "MEK1 (Homo sapiens, UniProt Q02750)"
reported = "> 8.30"

[[record]]
compound = "CNS(=O)(=O)Nc1cccc(CN2Cc3ccc(Oc4ncco4)cc3OC2=O)c1F"
target_entity = "MEK1 (Homo sapiens, UniProt Q02750)"
reported = "7.30 to 8.30"

[[record]]
compound = "CNS(=O)(=O)Nc1cccc(CN2Cc3ccc(OC(=O)N(C)C)c(F)c3OC2=O)c1F"
target_entity = "MEK1 (Homo sapiens, UniProt Q02750)"
reported = "> 8.30"

[[record]]
compound = "CNS(=O)(=O)Nc1cccc(CN2C(=O)Oc3cc(OC(=O)N(C)C)ccc3C23CN(C)C3)c1F"
target_entity = "MEK1 (Homo sapiens, UniProt Q02750)"
reported = "7.30 to 8.30"

[[record]]
compound = "CNS(=O)(=O)Nc1cccc(CN2Cc3cc(Cl)c(Oc4ncccn4)cc3OC2=O)c1F"
target_entity = "MEK1 (Homo sapiens, UniProt Q02750)"
reported = "7.30 to 8.30"

[[record]]
compound = "CNS(=O)(=O)Nc1cccc(CN2Cc3ccc(C(F)(F)C(=O)N(C)C)cc3OC2=O)c1F"
target_entity = "MEK1 (Homo sapiens, UniProt Q02750)"
reported = "7.30 to 8.30"

[[record]]
compound = "CNS(=O)(=O)Nc1nccc(CN2C(=O)Oc3cc(Oc4ncco4)c(F)cc3C2C)c1F (single isomer, unassigned) [Compound 185]"
target_entity = "MEK1 (Homo sapiens, UniProt Q02750)"
reported = "7.30 to 8.30"


----------
test system: p-ERK1/2 in HCT116 cells; test: AlphaLISA p-ERK assay, cellular inhibition of ERK phosphorylation in HCT116 cells; assay type: cell-based; conditions: Homo sapiens, HCT-116, 2 hours treatment, PMA stimulation 30 mins
pIC50: −log10 of the molar value.
Measure name: pIC50

[[record]]
compound = "O=C1Oc2cc(Oc3cccnn3)ccc2C2(COC2)N1Cc1cccc(NS(=O)(=O)C2CC2)c1F [Compound 59]"
target_entity = "p-ERK1/2 in HCT116 cells"
measure_name = "pIC50"
reported = "8.00 to 9.00"

[[record]]
compound = "CNS(=O)(=O)Nc1nccc(CN2C(=O)Oc3cc(Oc4ncco4)ccc3C23COC3)c1F [Compound 68]"
target_entity = "p-ERK1/2 in HCT116 cells"
measure_name = "pIC50"
reported = "7.00 to 8.00"

[[record]]
compound = "CNS(=O)(=O)Nc1cccc(CN2Cc3ccc(OC(=O)N(C)C)c(F)c3OC2=O)c1F [Compound 131]"
target_entity = "p-ERK1/2 in HCT116 cells"
measure_name = "pIC50"
reported = "8.00 to 9.00"

[[record]]
compound = "CNS(=O)(=O)Nc1cccc(CN2C(=O)Oc3c(ccc(Oc4ncco4)c3F)C23COC3)c1F [Compound 82]"
target_entity = "p-ERK1/2 in HCT116 cells"
measure_name = "pIC50"
reported = "8.00 to 9.00"

[[record]]
compound = "[2H]C1([2H])c2ccc(Oc3cccnn3)cc2OC(=O)N1Cc1cccc(NS(=O)(=O)NC)c1F [Compound 52]"
target_entity = "p-ERK1/2 in HCT116 cells"
measure_name = "pIC50"
reported = "8.00 to 9.00"

[[record]]
compound = "CNS(=O)(=O)Nc1cccc(CN2C(=O)Oc3cc(Oc4cccnn4)ccc3[C@H]2C)c1F (single isomer, unassigned) [Compound 71]"
target_entity = "p-ERK1/2 in HCT116 cells"
measure_name = "pIC50"
reported = "7.00 to 8.00"

[[record]]
compound = "CNS(=O)(=O)Nc1nccc(CN2Cc3ccc(Oc4nccnn4)cc3OC2=O)c1F [Compound 164]"
target_entity = "p-ERK1/2 in HCT116 cells"
measure_name = "pIC50"
reported = "7.00 to 8.00"

[[record]]
compound = "CNS(=O)(=O)Nc1cccc(CN2Cc3ccc(Oc4cccnn4)cc3OC2=O)c1F [Compound 105]"
target_entity = "p-ERK1/2 in HCT116 cells"
measure_name = "pIC50"
reported = "8.00 to 9.00"

[[record]]
compound = "CNS(=O)(=O)Nc1cccc(CN2Cc3ccc(Oc4ccccn4)cc3OC2=O)c1F [Compound 65]"
target_entity = "p-ERK1/2 in HCT116 cells"
measure_name = "pIC50"
reported = "7.00 to 8.00"

[[record]]
compound = "CNS(=O)(=O)Nc1cccc(CN2C(=O)Oc3cc(Oc4cccnn4)ccc3[C@@H]2C)c1F (single isomer, unassigned) [Compound 72]"
target_entity = "p-ERK1/2 in HCT116 cells"
measure_name = "pIC50"
reported = "8.00 to 9.00"

[[record]]
compound = "CNS(=O)(=O)Nc1cccc(CN2C(=O)Oc3cc(Oc4cccnn4)cc(F)c3[C@H]2C)c1F (single isomer, unassigned) [Compound 57]"
target_entity = "p-ERK1/2 in HCT116 cells"
measure_name = "pIC50"
reported = "8.00 to 9.00"

[[record]]
compound = "CNS(=O)(=O)Nc1cccc(CN2Cc3cc(Cl)c(Oc4ncccn4)cc3OC2=O)c1F [Compound 148]"
target_entity = "p-ERK1/2 in HCT116 cells"
measure_name = "pIC50"
reported = "7.00 to 8.00"

[[record]]
compound = "CNS(=O)(=O)Nc1nccc(CN2Cc3ccc(Oc4ncco4)cc3OC2=O)c1F [Compound 162]"
target_entity = "p-ERK1/2 in HCT116 cells"
measure_name = "pIC50"
reported = "7.00 to 8.00"

[[record]]
compound = "CN(C)S(=O)(=O)Nc1cccc(CN2C(=O)Oc3c(ccc(Oc4cccnn4)c3F)C23COC3)c1F [Compound 40]"
target_entity = "p-ERK1/2 in HCT116 cells"
measure_name = "pIC50"
reported = "7.00 to 8.00"

[[record]]
compound = "CNS(=O)(=O)Nc1cccc(CN2C(=O)Oc3cc(Oc4cccnn4)c(F)cc3C23COC3)c1F [Compound 58]"
target_entity = "p-ERK1/2 in HCT116 cells"
measure_name = "pIC50"
reported = "> 9.00"

